- measurementDescription: Food effect cross-over study, 200 mg (25 mg tablets), healthy volunteers: plasma pharmacokinetics
- Assay type: in vivo, human
- protocolConditions: human, plasma, po, single 200 mg oral dose, Fasted (N = 10), read-out: AUClast, Geometric Mean
observationType: AUC(0-t) (ng·h/mL)
Give a bare numeral; the unit ng·h/mL is implied.

Need AUC(0-t) of "Cn1cc(S(=O)(=O)[C@@](C)(F)C2CCN(C(=O)Nc3ccon3)CC2)c(C(F)F)n1" , thanks.
58800

---

- measurementDescription: Food effect cross-over study, 200 mg (25 mg tablets), healthy volunteers: plasma pharmacokinetics
- Assay type: in vivo, human
- protocolConditions: human, plasma, po, single 200 mg oral dose, Fed (N = 10), read-out: Tmax, Median
observationType: Tmax (h)
Give a bare numeral; the unit h is implied.

Need Tmax of "Cn1cc(S(=O)(=O)[C@@](C)(F)C2CCN(C(=O)Nc3ccon3)CC2)c(C(F)F)n1" , thanks.
5.5

---

- measurementDescription: Single ascending oral dose study in healthy volunteers: plasma pharmacokinetics
- Format: in vivo, human
- protocolConditions: human, plasma, oral, 3 mg; read-out: Mean Residence Time, Mean
- Text: This example describes the first-in-human study of Compound I. Based on its mechanism of action, Compound I may offer a targeted therapy for patients with DCM caused by genetic or nongenetic mechanisms. […] The concentrations of Compound I in human plasma and urine were quantitated by high performance liquid chromatography with tandem mass spectrometric detection (LC MS/MS) (Biological sample analysis study report Alturas AD17-726). […]
observationType: MRT (h)
Give a bare numeral; the unit h is implied.

Need MRT of Cn1cc(S(=O)(=O)[C@@](C)(F)C2CCN(C(=O)Nc3ccon3)CC2)c(C(F)F)n1 [Compound I] , thanks.
17.5

---

- measurementDescription: Single ascending oral dose study in healthy volunteers: plasma pharmacokinetics
- Type: in vivo, human
- protocolConditions: human, plasma, oral, 350 mg + 525 mg; read-out: Mean Residence Time, Median
observationType: MRT

Need MRT of "Cn1cc(S(=O)(=O)[C@@](C)(F)C2CCN(C(=O)Nc3ccon3)CC2)c(C(F)F)n1" , thanks.
23.5 h

---

- measurementDescription: Food effect cross-over study, 200 mg (25 mg tablets), healthy volunteers: plasma pharmacokinetics
- Type: in vivo, human
- protocolConditions: human, plasma, oral, 3 hours postdose, Fasted, read-out: Plasma concentration, Mean
observationType: concentration at 3 h (ng/mL)
Give a bare numeral; the unit ng/mL is implied.

Need concentration at 3 h of Cn1cc(S(=O)(=O)[C@@](C)(F)C2CCN(C(=O)Nc3ccon3)CC2)c(C(F)F)n1 [Compound I] , thanks.
2120

---

- measurementDescription: Single ascending oral dose study in healthy volunteers: plasma pharmacokinetics
- Assay type: in vivo, human
- protocolConditions: human, plasma, oral, 175 mg; read-out: Vz/F, Mean
- Source text: This example describes the first-in-human study of Compound I. Based on its mechanism of action, Compound I may offer a targeted therapy for patients with DCM caused by genetic or nongenetic mechanisms. […] The concentrations of Compound I in human plasma and urine were quantitated by high performance liquid chromatography with tandem mass spectrometric detection (LC MS/MS) (Biological sample analysis study report Alturas AD17-726). […]
observationType: Vd/F (L)
Give a bare numeral; the unit L is implied.

Need Vd/F of Cn1cc(S(=O)(=O)[C@@](C)(F)C2CCN(C(=O)Nc3ccon3)CC2)c(C(F)F)n1 [Compound I] , thanks.
106

---

- measurementDescription: Food effect cross-over study, 200 mg (25 mg tablets), healthy volunteers: plasma pharmacokinetics
- Type: in vivo, human
- protocolConditions: human, plasma, oral, 5 hours postdose, Fasted, read-out: Plasma concentration, Mean
observationType: concentration at 5 h

Need concentration at 5 h of "Cn1cc(S(=O)(=O)[C@@](C)(F)C2CCN(C(=O)Nc3ccon3)CC2)c(C(F)F)n1" , thanks.
2310 ng/mL

---

- measurementDescription: Single ascending oral dose study in healthy volunteers: plasma pharmacokinetics
- Type: in vivo, human
- protocolConditions: human, plasma, oral, 350 mg + 525 mg; read-out: AUC0-last, Geometric Mean
observationType: AUC(0-t) (ng·h/mL)
Give a bare numeral; the unit ng·h/mL is implied.

Need AUC(0-t) of "Cn1cc(S(=O)(=O)[C@@](C)(F)C2CCN(C(=O)Nc3ccon3)CC2)c(C(F)F)n1" , thanks.
70600

---

- measurementDescription: Single ascending oral dose study in healthy volunteers: plasma pharmacokinetics
- Type: in vivo, human
- protocolConditions: human, plasma, oral, 50 mg, 6 Hours Postdose; 50 mg; read-out: Plasma concentration, Mean
observationType: concentration at 6 h
Please make sure the unit comes right after the number.

Need concentration at 6 h of Cn1cc(S(=O)(=O)[C@@](C)(F)C2CCN(C(=O)Nc3ccon3)CC2)c(C(F)F)n1 [Compound I] , thanks.
0.431 µg/mL

---

- measurementDescription: Single ascending oral dose study in healthy volunteers: plasma pharmacokinetics
- Type: in vivo, human
- protocolConditions: human, plasma, oral, 3 mg, 12 Hours Postdose; 3 mg; read-out: Plasma concentration, Median
observationType: concentration at 12 h

Need concentration at 12 h of "Cn1cc(S(=O)(=O)[C@@](C)(F)C2CCN(C(=O)Nc3ccon3)CC2)c(C(F)F)n1" , thanks.
21.7 ng/mL

---

- measurementDescription: Single ascending oral dose study in healthy volunteers: plasma pharmacokinetics
- Type: in vivo, human
- protocolConditions: human, plasma, oral, 12 Hours Postdose; 350 mg + 525 mg; read-out: Plasma concentration, Geometric Mean
observationType: concentration at 12 h (µg/mL)
Give a bare numeral; the unit µg/mL is implied.

Need concentration at 12 h of Cn1cc(S(=O)(=O)[C@@](C)(F)C2CCN(C(=O)Nc3ccon3)CC2)c(C(F)F)n1 [Compound I] , thanks.
1.93

---

- measurementDescription: HFrEF study Part 2 (MAD Cohorts A-D): plasma pharmacokinetics
- Type: in vivo, human
- protocolConditions: human, plasma, oral, 75 mg, MAD Cohort C, 75 mg BID (with food); Mean; read-out: Cmax, Day 1
observationType: Cmax (ng/mL)
Give a bare numeral; the unit ng/mL is implied.

Need Cmax of Cn1cc(S(=O)(=O)[C@@](C)(F)C2CCN(C(=O)Nc3ccon3)CC2)c(C(F)F)n1 [Compound I] , thanks.
1250

---

- measurementDescription: HFrEF study Part 2 (MAD Cohorts A-D): plasma pharmacokinetics
- Format: in vivo, human
- protocolConditions: human, plasma, oral, 75 mg, MAD Cohort C, 75 mg BID (with food); steady state; Mean; read-out: AUC_TAU
observationType: AUC (ng·h/mL)
Give a bare numeral; the unit ng·h/mL is implied.

Need AUC of "Cn1cc(S(=O)(=O)[C@@](C)(F)C2CCN(C(=O)Nc3ccon3)CC2)c(C(F)F)n1" , thanks.
40300

---

- measurementDescription: Single ascending oral dose study in healthy volunteers: plasma pharmacokinetics
- Assay type: in vivo, human
- protocolConditions: human, plasma, oral, 100 mg, 12 Hours Postdose; 100 mg; read-out: Plasma concentration, Median
- Excerpt: This example describes the first-in-human study of Compound I. Based on its mechanism of action, Compound I may offer a targeted therapy for patients with DCM caused by genetic or nongenetic mechanisms. […] The concentrations of Compound I in human plasma and urine were quantitated by high performance liquid chromatography with tandem mass spectrometric detection (LC MS/MS) (Biological sample analysis study report Alturas AD17-726). […]
observationType: concentration at 12 h (ng/mL)
Give a bare numeral; the unit ng/mL is implied.

Need concentration at 12 h of Cn1cc(S(=O)(=O)[C@@](C)(F)C2CCN(C(=O)Nc3ccon3)CC2)c(C(F)F)n1 [Compound I] , thanks.
637

---

- measurementDescription: Single ascending oral dose study in healthy volunteers: plasma pharmacokinetics
- Type: in vivo, human
- protocolConditions: human, plasma, oral, 350 mg, 6 Hours Postdose; 350 mg; read-out: Plasma concentration, Median
- Text: This example describes the first-in-human study of Compound I. Based on its mechanism of action, Compound I may offer a targeted therapy for patients with DCM caused by genetic or nongenetic mechanisms. […] The concentrations of Compound I in human plasma and urine were quantitated by high performance liquid chromatography with tandem mass spectrometric detection (LC MS/MS) (Biological sample analysis study report Alturas AD17-726). […]
observationType: concentration at 6 h (ng/mL)
Give a bare numeral; the unit ng/mL is implied.

Need concentration at 6 h of "Cn1cc(S(=O)(=O)[C@@](C)(F)C2CCN(C(=O)Nc3ccon3)CC2)c(C(F)F)n1" , thanks.
2550

---

- measurementDescription: Food effect cross-over study, 200 mg (25 mg tablets), healthy volunteers: plasma pharmacokinetics
- Format: in vivo, human
- protocolConditions: human, plasma, oral, 12 hours postdose, Fed, read-out: Plasma concentration, Geometric Mean
observationType: concentration at 12 h (ng/mL)
Give a bare numeral; the unit ng/mL is implied.

Need concentration at 12 h of "Cn1cc(S(=O)(=O)[C@@](C)(F)C2CCN(C(=O)Nc3ccon3)CC2)c(C(F)F)n1" , thanks.
2780
